Please go through the items and note down their EC50.
- system: SST5 (Homo sapiens)
- Sequence (P35346 whole entry): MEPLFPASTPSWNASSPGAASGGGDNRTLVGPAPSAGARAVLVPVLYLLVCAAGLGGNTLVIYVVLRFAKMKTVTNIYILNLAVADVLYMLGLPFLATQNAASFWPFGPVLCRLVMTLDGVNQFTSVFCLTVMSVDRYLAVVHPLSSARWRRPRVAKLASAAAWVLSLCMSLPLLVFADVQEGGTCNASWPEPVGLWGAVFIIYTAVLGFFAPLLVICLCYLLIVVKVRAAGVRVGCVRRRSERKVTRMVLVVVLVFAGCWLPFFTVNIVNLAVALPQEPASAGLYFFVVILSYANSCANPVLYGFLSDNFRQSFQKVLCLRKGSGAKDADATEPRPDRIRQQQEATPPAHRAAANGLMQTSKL
- protocol-description: Hit Hunter cAMP XS+ assay, SST5 activation via Gi (reduction of forskolin-stimulated cAMP)
- Format: cell-based
- cond: reduction of forskolin-stimulated cAMP; 4-parameter logistic fit; read-out: SST5 pEC50 (converted)
*1 amine or outer side, *2 acyl side, *3 side chain or, on linkers, in order; H or OH if unused. Where a SMILES comes first, the peptide text is derived from it. Side-chain parts run from the residue outwards. [ ]: non-standard residue; d: D form. The star is where a group is joined. Ala(piperidin-4-yl) = O=C([C@H](CC1CCN([*:3])CC1)N[*:1])[*:2]; X2 = O=C([C@@H]1C[C@@H](Oc2ccncc2)CN1[*:1])[*:2]; Ala(piperazin-1-yl) = N[C@@H](CN1CCNCC1)C(=O)O; Phe(3-Cl) = N[C@@H](Cc1cccc(Cl)c1)C(=O)O; Phe(4-Cl) = N[C@@H](Cc1ccc(Cl)cc1)C(=O)O; Pro(4,4-F2) = O=C(O)[C@@H]1CC(F)(F)CN1; Ethylenediamine = C(CN[*:2])N[*:1]; d(hPhe) = N[C@H](CCc1ccccc1)C(=O)O; Hyp = O=C(O)[C@@H]1C[C@@H](O)CN1; hPhe = N[C@@H](CCc1ccccc1)C(=O)O; 3Pal = N[C@@H](Cc1cccnc1)C(=O)O; Cyclohexylmethyl = C1CCC(C*)CC1; Tic = O=C(O)[C@@H]1Cc2ccccc2CN1; Phg = N[C@H](C(=O)O)c1ccccc1; X3 = CN[C@H]1CCN(*)C1; CO = O=C([*:1])[*:2]; Bn = c1ccc(C*)cc1
The number alone won't do; follow it with the unit.

Take a look at these entries with their results.
compound	EC50
NCCNC(=O)O[C@@H]1C[C@H]2C(=O)N[C@@H](CCc3ccccc3)C(=O)N[C@H](Cc3c[nH]c4ccccc34)C(=O)N[C@@H](CC3CCNCC3)C(=O)N[C@@H](Cc3ccc(OCC4CCCCC4)cc3)C(=O)N3Cc4ccccc4C[C@H]3C(=O)N2C1 [Example 44] (cyclo([Hyp]([CO-Ethylenediamine])[hPhe][dW][Ala(piperidin-4-yl)]Y(Cyclohexylmethyl)[Tic]))	1 nM
CN[C@H]1CCN(C(=O)O[C@@H]2C[C@H]3C(=O)N[C@@H](CCc4ccccc4)C(=O)N[C@H](Cc4c[nH]c5ccccc45)C(=O)N[C@@H](CC4CCNCC4)C(=O)N[C@@H](Cc4ccc(OCc5ccccc5)cc4)C(=O)N4Cc5ccccc5C[C@H]4C(=O)N3C2)C1 [Example 78] (cyclo([Hyp]([CO-X3])[hPhe][dW][Ala(piperidin-4-yl)]Y(Bn)[Tic]))	1.26 nM
NCCNC(=O)O[C@@H]1C[C@H]2C(=O)N[C@H](CCc3ccccc3)C(=O)N[C@H](Cc3c[nH]c4ccccc34)C(=O)N[C@@H](CN3CCNCC3)C(=O)N[C@@H](Cc3ccc(OCc4ccccc4)cc3)C(=O)N3Cc4ccccc4C[C@H]3C(=O)N2C1 [Example 25] (cyclo([Hyp]([CO-Ethylenediamine])[d(hPhe)][dW][Ala(piperazin-1-yl)]Y(Bn)[Tic]))	0.126 nM
NCCNC(=O)O[C@@H]1C[C@H]2C(=O)N[C@@H](CCc3ccccc3)C(=O)N[C@@H](Cc3c[nH]c4ccccc34)C(=O)N[C@@H](CC3CCNCC3)C(=O)N[C@@H](Cc3ccc(OCc4ccccc4)cc3)C(=O)N[C@@H](Cc3ccccc3)C(=O)N2C1 [Example 29] (cyclo(F[Hyp]([CO-Ethylenediamine])[hPhe]W[Ala(piperidin-4-yl)]Y(Bn)))	1 nM
COc1ccc(C[C@@H]2NC(=O)[C@H](Cc3ccc(OCc4ccccc4)cc3)NC(=O)[C@H](CC3CCNCC3)NC(=O)[C@@H](Cc3c[nH]c4ccccc34)NC(=O)[C@H](CCc3ccccc3)NC(=O)[C@@H]3C[C@@H](OC(=O)NCCN)CN3C2=O)cc1 [Example 43] (cyclo([Hyp]([CO-Ethylenediamine])[hPhe][dW][Ala(piperidin-4-yl)]Y(Bn)Y(Me)))	0.316 nM
NCCNC(=O)O[C@@H]1C[C@H]2C(=O)N[C@H](CCc3ccccc3)C(=O)N[C@H](Cc3c[nH]c4ccccc34)C(=O)N[C@@H](CC3CCNCC3)C(=O)N[C@@H](Cc3ccc(OCc4ccccc4)cc3)C(=O)N[C@@H](Cc3ccccc3)C(=O)N2C1 [Example 38] (cyclo(F[Hyp]([CO-Ethylenediamine])[d(hPhe)][dW][Ala(piperidin-4-yl)]Y(Bn)))	12.6 nM
O=C1N[C@@H](Cc2cccnc2)C(=O)N2C[C@H](Oc3ccncc3)C[C@H]2C(=O)N[C@H](CCc2ccccc2)C(=O)N[C@H](Cc2c[nH]c3ccccc23)C(=O)N[C@@H](CC2CCNCC2)C(=O)N[C@H]1Cc1ccc(OCc2ccccc2)cc1 [Example 20] (cyclo([3Pal][X2][d(hPhe)][dW][Ala(piperidin-4-yl)]Y(Bn)))	6.31 nM
NCCNC(=O)O[C@@H]1C[C@H]2C(=O)N[C@H](CCc3ccccc3)C(=O)N[C@@H](Cc3c[nH]c4ccccc34)C(=O)N[C@@H](CN3CCNCC3)C(=O)N[C@@H](Cc3ccc(OCc4ccccc4)cc3)C(=O)N3Cc4ccccc4C[C@H]3C(=O)N2C1 [Example 35] (cyclo([Hyp]([CO-Ethylenediamine])[d(hPhe)]W[Ala(piperazin-1-yl)]Y(Bn)[Tic]))	1 nM
NCCNC(=O)O[C@@H]1C[C@H]2C(=O)N[C@@H](CCc3ccccc3)C(=O)N[C@H](Cc3c[nH]c4ccccc34)C(=O)N[C@@H](CN3CCNCC3)C(=O)N[C@@H](Cc3ccc(OCc4ccccc4)cc3)C(=O)N3CC(F)(F)C[C@H]3C(=O)N2C1 [Example 70] (cyclo([Hyp]([CO-Ethylenediamine])[hPhe][dW][Ala(piperazin-1-yl)]Y(Bn)[Pro(4,4-F2)]))	5.01 nM
NCCNC(=O)O[C@@H]1C[C@H]2C(=O)N[C@@H](c3ccccc3)C(=O)N[C@H](Cc3c[nH]c4ccccc34)C(=O)N[C@@H](CC3CCNCC3)C(=O)N[C@@H](Cc3ccc(OCc4ccccc4)cc3)C(=O)N[C@@H](Cc3cccc(Cl)c3)C(=O)N2C1 [Example 7] (cyclo([Hyp]([CO-Ethylenediamine])[Phg][dW][Ala(piperidin-4-yl)]Y(Bn)[Phe(3-Cl)]))	0.501 nM

Shift focus to the following entry.
Query (compound): NCCNC(=O)O[C@@H]1C[C@H]2C(=O)N[C@H](CCc3ccccc3)C(=O)N[C@H](Cc3c[nH]c4ccccc34)C(=O)N[C@@H](CN3CCNCC3)C(=O)N[C@@H](Cc3ccc(OCc4ccccc4)cc3)C(=O)N[C@@H](Cc3ccc(Cl)cc3)C(=O)N2C1 [Example 30] (cyclo([Hyp]([CO-Ethylenediamine])[d(hPhe)][dW][Ala(piperazin-1-yl)]Y(Bn)[Phe(4-Cl)])) ; field requested: EC50
1 nM
